# System: MDA-MB-231
# ASSAY NOTES: Luminescent cell viability assay (ATP)
# Type: cell-based
# DETAILS: Homo sapiens, 46 hours, luciferase signal normalized to untreated cells = 1, read-out: Relative viability MDA-MB-231
The label rule met is reserved for viability at 5 µM strictly under 90%; rule not met covers values equal to or above it.

Bench note: check whether COc1ccc(C2(C=Cc3c(C)nc(N)nc3N)CC2)cc1 [compound 22] shows viability at 5 µM below 90%
rule met

Bench note: check whether CC(C)(C=Cc1c(N)nc(N)nc1CCC(F)(F)F)c1ccc(C(F)(F)F)cc1 [compound 4] shows viability at 5 µM below 90%
rule not met

Bench note: check whether Cc1nc(N)nc(N)c1C#CC1(c2ccc(N3CCOCC3)cc2)CC1 [compound 28] shows viability at 5 µM below 90%
rule not met
